system: Hepatitis C virus; experiment: Antiviral activity against HCV harboring NS5B polymerase S282T mutant infected in human HuH7 cells by cell-based replicon assay; format: functional, Hepacivirus hominis, Huh-7; settings: Hepatitis C virus, Huh-7
parameter: log10(EC90) (log10 of the value in nM)
Values below are the log10 of the recorded EC90, with nM as the unit.

compound	log10(EC90)
CCOC(=O)[C@H](C)NP(=O)(OC[C@H]1O[C@@H](n2cnc3c(OC)nc(N)nc32)[C@](C)(F)[C@@H]1O)Oc1ccccc1 (stereo partly specified)	1.04
CC(C)OC(=O)[C@H](C)NP(=O)(OC[C@H]1O[C@@H](n2cnc3c(O)nc(N)nc32)[C@](C)(F)[C@@H]1O)Oc1ccccc1 (stereo partly specified)	2.79
CCOc1nc(N)nc2c1ncn2[C@@H]1O[C@H](COP(=O)(N[C@@H](C)C(=O)OC)Oc2ccccc2)[C@@H](O)[C@@]1(C)F (stereo partly specified)	1.20
COC(=O)[C@H](C)NP(=O)(OC[C@H]1O[C@@H](n2cnc3c(N4CCC4)nc(N)nc32)[C@](C)(F)[C@@H]1O)Oc1ccccc1 (stereo partly specified)	1.60

What does the data say about its log10(EC90)? Entry: "COc1nc(N)nc2c1ncn2[C@@H]1O[C@H](CO[P@](=O)(N[C@@H](C)C(=O)OC(C)C)Oc2ccccc2)[C@@H](O)[C@@]1(C)F" 1.58

What does the data say about its log10(EC90)? Entry: C[C@H](NP(=O)(OC[C@H]1O[C@@H](n2cnc3c(O)nc(N)nc32)[C@](C)(F)[C@@H]1O)Oc1ccccc1)C(=O)OC1CCCC1 (stereo partly specified) 2.08

====

test: Cytotoxicity against human […] cells after 96 hrs by MTS assay; assay type: cell-based
# Lookup of reported CC50 at 96 h keyed by entry

compound	CC50 at 96 h
C[C@H](NP(=O)(OC[C@H]1O[C@@H](n2cnc3c(O)nc(N)nc32)[C@](C)(F)[C@@H]1O)Oc1ccccc1)C(=O)OC1CCCCC1 (some centres undefined)	> 100 µM
CCOC(=O)[C@H](C)NP(=O)(OC[C@H]1O[C@@H](n2cnc3c(O)nc(N)nc32)[C@](C)(F)[C@@H]1O)Oc1ccccc1 (some centres undefined)	> 100 µM
CCOC(=O)[C@H](C)NP(=O)(OC[C@H]1O[C@@H](n2cnc3c(OC)nc(N)nc32)[C@](C)(F)[C@@H]1O)Oc1ccccc1 (some centres undefined)	65 µM

Shift focus to the following entry.
What does the data say about its CC50 at 96 h? Entry: COc1nc(N)nc2c1ncn2[C@@H]1O[C@H](COP(=O)(N[C@@H](C)C(=O)OC(C)C)Oc2ccccc2)[C@@H](O)[C@@]1(C)F (stereo in doubt; 23) > 100 µM

====

experiment: Inhibition of HCV NS5B polymerase; set-up: species or system Hepacivirus hominis
parameter: IC50
Could you kindly put the unit after your number?

What does the data say about its IC50? Entry: "C[C@@]1(F)[C@H](O)[C@@H](COP(=O)(O)OP(=O)(O)OP(=O)(O)O)O[C@H]1n1cnc2c(=O)[nH]c(N)nc21" 5.94 µM

====

# Lookup of reported half-life keyed by entry
test: Half life in human plasma; type: ADME, cell-free

compound	half-life
COc1nc(N)nc2c1ncn2[C@@H]1O[C@H](COP(=O)(N[C@@H](C)C(=O)OC(C)C)Oc2ccccc2)[C@@H](O)[C@@]1(C)F (stereo in doubt; 23)	> 1440 min
COC(=O)[C@H](C)NP(=O)(OC[C@H]1O[C@@H](n2cnc3c(N4CCC4)nc(N)nc32)[C@](C)(F)[C@@H]1O)Oc1ccccc1 (stereo partly drawn)	696 min

Shift focus to the following entry.
What does the data say about its half-life? Entry: C[C@H](NP(=O)(OC[C@H]1O[C@@H](n2cnc3c(O)nc(N)nc32)[C@](C)(F)[C@@H]1O)Oc1ccccc1)C(=O)OC1CCCC1 (stereo partly drawn) > 1440 min

====

# Lookup of reported EC90 keyed by entry
tested on: Hepatitis C virus; assay: Antiviral activity against HCV infected in human HuH7 cells by cell-based replicon assay; assay type: functional, Hepacivirus hominis, Huh-7; conditions: Hepatitis C virus, Huh-7
Lab book: enter the figure in nM, no units written.

compound	readout unit	EC90
C[C@H](NP(=O)(OC[C@H]1O[C@@H](n2cnc3c(O)nc(N)nc32)[C@](C)(F)[C@@H]1O)Oc1ccccc1)C(=O)OC1CCCC1 (some centres undefined)	nM	180
CCOc1nc(N)nc2c1ncn2[C@@H]1O[C@H](COP(=O)(N[C@@H](C)C(=O)OC)Oc2ccccc2)[C@@H](O)[C@@]1(C)F (some centres undefined)	nM	16
CC(C)OC(=O)[C@H](C)NP(=O)(OC[C@H]1O[C@@H](n2cnc3c(N4CCC4)nc(N)nc32)[C@](C)(F)[C@@H]1O)Oc1ccccc1 (some centres undefined)	nM	19

Shift focus to the following entry.
What does the data say about its EC90? Entry: CCOC(=O)[C@H](C)NP(=O)(OC[C@H]1O[C@@H](n2cnc3c(NC4CCCC4)nc(N)nc32)[C@](C)(F)[C@@H]1O)Oc1ccccc1 (some centres undefined) 26

====

system: Hepatitis C virus; test: Antiviral activity against HCV infected in human HuH7 cells by cell-based replicon assay; assay type: functional, Hepacivirus hominis, Huh-7; details: Hepatitis C virus, Huh-7
# Lookup of reported EC90 keyed by entry
Lab book: enter the figure in nM, no units written.

Look over these answered cases.
compound	EC90 [nM]
CC(C)OC(=O)[C@H](C)NP(=O)(OC[C@H]1O[C@@H](n2cnc3c(NC4CC4)nc(N)nc32)[C@](C)(F)[C@@H]1O)Oc1ccccc1 (stereo partly specified)	8.8
COc1nc(N)nc2c1ncn2[C@@H]1O[C@H](CO[P@](=O)(N[C@@H](C)C(=O)OC(C)C)Oc2ccccc2)[C@@H](O)[C@@]1(C)F	27
CCOc1nc(N)nc2c1ncn2[C@@H]1O[C@H](COP(=O)(N[C@@H](C)C(=O)OC(C)C)Oc2ccccc2)[C@@H](O)[C@@]1(C)F (stereo partly specified)	20
CCOC(=O)[C@H](C)NP(=O)(OC[C@H]1O[C@@H](n2cnc3c(OCC)nc(N)nc32)[C@](C)(F)[C@@H]1O)Oc1ccccc1 (stereo partly specified)	10
COC(=O)[C@H](C)NP(=O)(OC[C@H]1O[C@@H](n2cnc3c(N4CCC4)nc(N)nc32)[C@](C)(F)[C@@H]1O)Oc1ccccc1 (stereo partly specified)	90

What does the data say about its EC90? Entry: CCOC(=O)[C@H](C)NP(=O)(OC[C@H]1O[C@@H](n2cnc3c(N4CCC4)nc(N)nc32)[C@](C)(F)[C@@H]1O)Oc1ccccc1 (stereo partly specified) 7

====

assay: Cytotoxicity against human CEM cells after 96 hrs by MTS assay; format: cell-based; details: CEM (CCRF-CEM) cells
# Lookup of reported CC50 at 96 h keyed by entry
Lab book: enter the figure in µM, no units written.

molecule	parameter	readout number
COC(=O)[C@H](C)NP(=O)(OC[C@H]1O[C@@H](n2cnc3c(N4CCC4)nc(N)nc32)[C@](C)(F)[C@@H]1O)Oc1ccccc1 (stereo partly drawn)	CC50 at 96 h	75
COC(=O)[C@H](C)NP(=O)(OC[C@H]1O[C@@H](n2cnc3c(NC4CC4)nc(N)nc32)[C@](C)(F)[C@@H]1O)Oc1ccccc1 (stereo partly drawn)	CC50 at 96 h	34
CCCOc1nc(N)nc2c1ncn2[C@@H]1O[C@H](COP(=O)(N[C@@H](C)C(=O)OC)Oc2ccccc2)[C@@H](O)[C@@]1(C)F (stereo partly drawn)	CC50 at 96 h	17
COC(=O)[C@H](C)NP(=O)(OC[C@H]1O[C@@H](n2cnc3c(OC)nc(N)nc32)[C@](C)(F)[C@@H]1O)Oc1ccccc1 (stereo partly drawn)	CC50 at 96 h	20
CCOC(=O)[C@H](C)NP(=O)(OC[C@H]1O[C@@H](n2cnc3c(NC4CC4)nc(N)nc32)[C@](C)(F)[C@@H]1O)Oc1ccccc1 (stereo partly drawn)	CC50 at 96 h	45

What does the data say about its CC50 at 96 h? Entry: CCCOc1nc(N)nc2c1ncn2[C@@H]1O[C@H](COP(=O)(N[C@@H](C)C(=O)OC(C)C)Oc2ccccc2)[C@@H](O)[C@@]1(C)F (stereo partly drawn) 44

What does the data say about its CC50 at 96 h? Entry: CCOC(=O)[C@H](C)NP(=O)(OC[C@H]1O[C@@H](n2cnc3c(OCC)nc(N)nc32)[C@](C)(F)[C@@H]1O)Oc1ccccc1 (stereo partly drawn) 37

What does the data say about its CC50 at 96 h? Entry: CCOc1nc(N)nc2c1ncn2[C@@H]1O[C@H](COP(=O)(N[C@@H](C)C(=O)OC(C)C)Oc2ccccc2)[C@@H](O)[C@@]1(C)F (stereo partly drawn) 93

What does the data say about its CC50 at 96 h? Entry: CCOC(=O)[C@H](C)NP(=O)(OC[C@H]1O[C@@H](n2cnc3c(OC)nc(N)nc32)[C@](C)(F)[C@@H]1O)Oc1ccccc1 (stereo partly drawn) 55

What does the data say about its CC50 at 96 h? Entry: CCOc1nc(N)nc2c1ncn2[C@@H]1O[C@H](COP(=O)(N[C@@H](C)C(=O)OC)Oc2ccccc2)[C@@H](O)[C@@]1(C)F (stereo partly drawn) 74

What does the data say about its CC50 at 96 h? Entry: CC(C)OC(=O)[C@H](C)NP(=O)(OC[C@H]1O[C@@H](n2cnc3c(N4CCC4)nc(N)nc32)[C@](C)(F)[C@@H]1O)Oc1ccccc1 (stereo partly drawn) 74

What does the data say about its CC50 at 96 h? Entry: CCOC(=O)[C@H](C)NP(=O)(OC[C@H]1O[C@@H](n2cnc3c(N4CCC4)nc(N)nc32)[C@](C)(F)[C@@H]1O)Oc1ccccc1 (stereo partly drawn) 39
